The following compounds are listed with their measured pIC50 values.
Molecular target: beta-catenin/TCF4 engagement (Homo sapiens)
Construct: expressed in transfected cells; host or cells: HEK293
Sequence (P35222 1-781): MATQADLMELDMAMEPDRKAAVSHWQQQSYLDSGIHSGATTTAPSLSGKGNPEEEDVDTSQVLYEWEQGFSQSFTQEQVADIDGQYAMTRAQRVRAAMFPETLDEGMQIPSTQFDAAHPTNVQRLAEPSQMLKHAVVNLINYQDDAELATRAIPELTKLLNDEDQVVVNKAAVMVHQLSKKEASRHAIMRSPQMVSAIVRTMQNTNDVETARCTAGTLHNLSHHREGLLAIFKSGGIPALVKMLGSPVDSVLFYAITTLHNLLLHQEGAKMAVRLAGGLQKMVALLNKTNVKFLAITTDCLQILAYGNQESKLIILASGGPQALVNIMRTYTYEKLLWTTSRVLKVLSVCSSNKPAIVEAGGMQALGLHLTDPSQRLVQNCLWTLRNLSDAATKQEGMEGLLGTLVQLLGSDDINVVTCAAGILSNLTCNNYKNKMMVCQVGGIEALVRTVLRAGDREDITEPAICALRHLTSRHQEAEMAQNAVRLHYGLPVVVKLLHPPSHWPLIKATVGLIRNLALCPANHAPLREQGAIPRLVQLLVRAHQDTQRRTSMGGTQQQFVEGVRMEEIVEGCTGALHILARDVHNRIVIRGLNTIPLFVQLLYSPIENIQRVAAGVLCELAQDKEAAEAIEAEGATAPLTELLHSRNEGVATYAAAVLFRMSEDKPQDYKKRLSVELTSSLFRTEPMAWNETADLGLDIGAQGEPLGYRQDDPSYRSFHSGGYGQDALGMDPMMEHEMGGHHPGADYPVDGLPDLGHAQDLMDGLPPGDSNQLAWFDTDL
Test: Nano-BRET target engagement assay (B-cat-Halo & TCF4-Luc in HEK293 cells)
Type: cell-based
Conditions: read-out: NanoBRET Abs IC50
// pIC50 is dimensionless: -log10 of concentration (M)

[[record]]
compound = "CC(=O)N1CCC[C@]12CC=CCCCC1(CCCC=CCCCOC(=O)N3CC[C@@](C(=O)N[C@@H](Cc4ccccc4C(F)(F)F)C(=O)N[C@@H](Cc4csc5ccccc45)C(=O)N[C@@H](CCC(N)=O)C(N)=O)(C3)NC(=O)[C@H](CC(N)=O)NC(=O)[C@H](Cc3ccccc3)NC(=O)[C@H](C)NC(=O)[C@H](C)NC(=O)[C@H](CN(CC(=O)O)CC(F)(F)F)NC(=O)[C@H](CC(=O)O)NC1=O)NC(=O)[C@H](CC(C)(C)C)NC(=O)[C@H](CC(=O)O)NC2=O (some centres unmarked) [I-928]"
observed_value = 5.21


Please examine the following record next.
State pIC50 (beta-catenin/TCF4 engagement (Homo sapiens)) of CC(=O)N1CCC[C@]12CC=CCCCC1(CCCC=CCCCOC(=O)N3CC[C@@](C(=O)N[C@@H](Cc4ccccc4Cl)C(=O)N[C@@H](Cc4csc5ccccc45)C(=O)N[C@@H](CC(N)=O)C(N)=O)(C3)NC(=O)[C@H](CO)NC(=O)[C@H](Cc3ccccc3)NC(=O)[C@H](C)NC(=O)[C@H](C)NC(=O)[C@H](Cc3cccc(C(=O)O)c3)NC(=O)[C@H](CC(=O)O)NC1=O)NC(=O)[C@H](CC(C)(C)C)NC(=O)[C@H](CC(=O)O)NC2=O (some centres unmarked) [I-2038] .
4.93
